Kindly state AC50 for each of the entries shown.
target: Sodium channel protein type 5 subunit alpha (Homo sapiens, UniProt Q14524); assay type: functional, cell-based; also: assay procedure not described here
Sequence (Q14524 whole entry): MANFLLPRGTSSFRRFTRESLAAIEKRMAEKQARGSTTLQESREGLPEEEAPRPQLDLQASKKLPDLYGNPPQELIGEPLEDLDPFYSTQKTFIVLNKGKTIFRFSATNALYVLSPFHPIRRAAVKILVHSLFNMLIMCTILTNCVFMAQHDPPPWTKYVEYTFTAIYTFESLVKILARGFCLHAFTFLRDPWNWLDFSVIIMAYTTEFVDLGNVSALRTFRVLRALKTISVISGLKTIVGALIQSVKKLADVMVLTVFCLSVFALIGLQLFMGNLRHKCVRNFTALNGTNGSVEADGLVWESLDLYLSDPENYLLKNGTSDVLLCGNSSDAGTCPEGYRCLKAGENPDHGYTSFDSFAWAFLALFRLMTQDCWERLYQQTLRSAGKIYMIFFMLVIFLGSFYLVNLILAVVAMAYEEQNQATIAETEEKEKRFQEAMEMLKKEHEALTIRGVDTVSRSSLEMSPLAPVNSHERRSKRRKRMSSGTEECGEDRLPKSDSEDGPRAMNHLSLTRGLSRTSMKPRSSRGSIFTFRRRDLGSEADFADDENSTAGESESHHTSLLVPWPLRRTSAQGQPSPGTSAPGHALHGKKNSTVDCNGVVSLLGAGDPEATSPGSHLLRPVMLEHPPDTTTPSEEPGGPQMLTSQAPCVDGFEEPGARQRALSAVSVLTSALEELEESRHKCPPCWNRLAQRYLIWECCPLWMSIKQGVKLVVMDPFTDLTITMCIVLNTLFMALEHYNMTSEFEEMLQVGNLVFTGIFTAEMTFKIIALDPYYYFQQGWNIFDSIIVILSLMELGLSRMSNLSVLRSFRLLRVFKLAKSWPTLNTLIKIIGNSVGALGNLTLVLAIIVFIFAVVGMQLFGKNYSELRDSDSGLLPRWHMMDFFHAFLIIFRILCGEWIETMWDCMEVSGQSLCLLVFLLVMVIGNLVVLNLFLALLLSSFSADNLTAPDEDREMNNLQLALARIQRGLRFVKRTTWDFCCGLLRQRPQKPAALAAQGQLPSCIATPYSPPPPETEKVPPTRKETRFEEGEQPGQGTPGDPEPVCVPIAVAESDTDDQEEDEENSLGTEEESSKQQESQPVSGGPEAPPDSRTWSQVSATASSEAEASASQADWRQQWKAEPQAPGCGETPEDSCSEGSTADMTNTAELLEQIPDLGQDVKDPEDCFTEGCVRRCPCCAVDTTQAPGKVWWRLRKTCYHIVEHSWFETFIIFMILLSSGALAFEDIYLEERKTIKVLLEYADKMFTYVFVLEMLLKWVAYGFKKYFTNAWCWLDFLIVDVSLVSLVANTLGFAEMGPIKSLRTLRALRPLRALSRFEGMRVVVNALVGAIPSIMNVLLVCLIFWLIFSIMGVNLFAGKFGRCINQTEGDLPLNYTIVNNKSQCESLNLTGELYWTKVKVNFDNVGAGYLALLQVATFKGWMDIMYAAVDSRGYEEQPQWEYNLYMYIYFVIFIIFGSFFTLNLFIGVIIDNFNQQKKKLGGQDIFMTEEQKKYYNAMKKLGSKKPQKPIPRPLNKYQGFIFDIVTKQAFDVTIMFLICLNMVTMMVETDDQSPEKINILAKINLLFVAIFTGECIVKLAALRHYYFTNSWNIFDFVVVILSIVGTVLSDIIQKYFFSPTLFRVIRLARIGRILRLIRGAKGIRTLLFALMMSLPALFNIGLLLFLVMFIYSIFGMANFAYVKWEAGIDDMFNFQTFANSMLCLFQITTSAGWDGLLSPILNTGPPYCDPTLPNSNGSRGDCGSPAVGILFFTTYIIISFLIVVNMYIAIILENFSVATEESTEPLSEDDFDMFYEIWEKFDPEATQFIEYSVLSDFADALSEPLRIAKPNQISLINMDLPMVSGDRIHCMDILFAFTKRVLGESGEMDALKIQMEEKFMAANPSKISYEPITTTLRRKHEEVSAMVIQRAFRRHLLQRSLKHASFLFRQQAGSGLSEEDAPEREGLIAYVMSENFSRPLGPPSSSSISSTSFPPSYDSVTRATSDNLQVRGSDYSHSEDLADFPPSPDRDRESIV

INSERT INTO measurements (compound, readout_kind, assay_value) VALUES
  ('O=P(O)(O)C(O)(Cc1cccnc1)P(=O)(O)O [RISEDRONIC ACID]', 'AC50', '> 30 µM'),
  ('O=C(NC[C@H]1CN(c2ccc(N3CCOCC3=O)cc2)C(=O)O1)c1ccc(Cl)s1 [RIVAROXABAN]', 'AC50', '> 50 µM'),
  ('[H]/N=C(/N)c1ccc(NCc2nc3cc(C(=O)N(CCC(=O)O)c4ccccn4)ccc3n2C)cc1 [DABIGATRAN]', 'AC50', '> 30 µM'),
  ('O=C1c2c(O)c(=O)ccn2N([C@@H]2c3ccccc3SCc3c2ccc(F)c3F)[C@@H]2COCCN12 [BALOXAVIR]', 'AC50', '> 50 µM'),
  ('CC(Cc1ccccc1)NCCC(c1ccccc1)c1ccccc1 (stereo not drawn) [PRENYLAMINE]', 'AC50', '7.1 µM'),
  ('CCCCOc1cc(C(=O)NCCN(CC)CC)c2ccccc2n1 [DIBUCAINE]', 'AC50', '1.8 µM'),
  ('C#C[C@]1(O)CC[C@H]2[C@@H]3CCc4cc(O)ccc4[C@H]3CC[C@@]21C [ETHINYL ESTRADIOL]', 'AC50', '> 30 µM');

Please turn your attention to the following entry.
Recorded AC50 for O=C1NCCN1CCN1CCC(c2cn(-c3ccc(F)cc3)c3ccc(Cl)cc23)CC1 [SERTINDOLE] on Sodium channel protein type 5 subunit alpha (Homo sapiens, UniProt Q14524) was 21 µM

Ref: ChEMBL document CHEMBL5291721
